- METHOD: Hardness (Shore hardness tester, GB/T 531-2008)
- Type: physicochemical
- RECORDED_CONDITIONS: composite: 100 parts PVC resin (K value 60, polydispersity index 4), 30 parts plasticizer, 2 parts oxidized polyethylene wax, 5 parts octyltin maleate
Counter-ions that a name gives are not always drawn.
ASSAY_ENDPOINT: Hardness/Shore D (Shore D)

MOLECULE: CCCCOC(=O)C=C(CC(=O)OCCCC)C(=O)OCCCC [Tributyl aconitate, tributyl aconitate]
ASSAY_ENDPOINT: Hardness/Shore D
UNIT_SYMBOL: Shore D
READOUT_NUMBER: 45
//
MOLECULE: CCCCOC(=O)CC(O)(CC(=O)OCCCC)C(=O)OCCCC [Tributyl citrate, tributyl citrate]
ASSAY_ENDPOINT: Hardness/Shore D
UNIT_SYMBOL: Shore D
READOUT_NUMBER: 77
//
MOLECULE: CCCCCCCCOC(=O)c1ccccc1C(=O)OCCCCCCCC [Dioctyl Phthalate, dioctyl phthalate]
ASSAY_ENDPOINT: Hardness/Shore D
UNIT_SYMBOL: Shore D
READOUT_NUMBER: 78
//
MOLECULE: CC(C)CCCCCOC(=O)C=C(CC(=O)OCCCCCC(C)C)C(=O)OCCCCCC(C)C [Triisooctyl aconitate, triisooctyl aconitate]
ASSAY_ENDPOINT: Hardness/Shore D
UNIT_SYMBOL: Shore D
READOUT_NUMBER: 71
